Molecular target: T1, AfPiwi (UniProt O28951 1-427)
T1 sequence: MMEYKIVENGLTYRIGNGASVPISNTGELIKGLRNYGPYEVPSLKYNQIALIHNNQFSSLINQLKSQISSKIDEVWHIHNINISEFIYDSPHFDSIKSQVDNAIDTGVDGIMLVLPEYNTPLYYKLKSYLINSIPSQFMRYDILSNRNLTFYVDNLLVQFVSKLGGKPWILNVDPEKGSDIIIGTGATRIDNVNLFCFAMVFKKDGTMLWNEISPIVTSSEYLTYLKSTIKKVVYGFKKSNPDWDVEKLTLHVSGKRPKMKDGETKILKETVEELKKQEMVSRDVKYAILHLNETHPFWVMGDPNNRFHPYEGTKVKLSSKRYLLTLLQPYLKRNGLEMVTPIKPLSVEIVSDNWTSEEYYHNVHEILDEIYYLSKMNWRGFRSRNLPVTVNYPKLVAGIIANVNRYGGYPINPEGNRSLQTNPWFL
Experiment: ITC; target into AfPiwi-guide; 10 mM Mg2+; isolation 206 nM; ITC: 50 mM Tris pH 7.5, 150 mM KCl, 5% glycerol, 10 mM MgCl2, 1 mM DTT, 20 C; guide 3.5-24 uM in cell with 3-4 fold excess AfPiwi, target in syringe
Details: protein: recombinant; T:G mismatch at guide position 8
readout type: Kd (nM)

• Fig 5F DNA T:G mismatch at position 8 (dsDNA, guide 5' phosphate) DNA 1: TGTAGGTTGCAT DNA 2: TGCGACCT = 672
